# System name: Aspartate--tRNA(Asp/Asn) ligase (Mycobacterium tuberculosis (strain ATCC 25618 / H37Rv))
# Protocol text: Assay for Asp RNA synthetase-1 from Mycobacterium tuberculosis
# Assay type: functional
# Parameters: scale not given: in the data most compounds retested in dose-response had high values
# Particulars: 30 µM

# Compound, Percent Effect, %
rows = [
    ("O=C(NCCN1CCCc2ccccc21)c1scnc1Cl", -4.16),
    ("COCCN1CCCN(C(=O)NC(C)Cn2ccnc2)CC1 (stereo unspecified)", -1.32),
    ("CCc1nc(CCNC(=O)NC2CC2)sc1C", 5.19),
    ("COc1ccccc1OCC(=O)NS(=O)(=O)c1ccccc1F", 0.814),
    ("O=C(C1=CCCC1)N1CCO[C@H]2[C@@H](Oc3ccccn3)CC[C@@H]21", 0.28),
    ("CC(C)N1CCOCC2(CN(Cc3ccccn3)CCO2)C1 (stereo unspecified)", 5.23),
]
